Consider the following molecules; for each one, report its inhibition at 10 µM.
- target of assay: human B1R (bradykinin receptor 1) (Homo sapiens, UniProt P46663)
- Construct: expressed in transfected cells; host or cells: CHO K1 cells
- Sequence (P46663 whole entry): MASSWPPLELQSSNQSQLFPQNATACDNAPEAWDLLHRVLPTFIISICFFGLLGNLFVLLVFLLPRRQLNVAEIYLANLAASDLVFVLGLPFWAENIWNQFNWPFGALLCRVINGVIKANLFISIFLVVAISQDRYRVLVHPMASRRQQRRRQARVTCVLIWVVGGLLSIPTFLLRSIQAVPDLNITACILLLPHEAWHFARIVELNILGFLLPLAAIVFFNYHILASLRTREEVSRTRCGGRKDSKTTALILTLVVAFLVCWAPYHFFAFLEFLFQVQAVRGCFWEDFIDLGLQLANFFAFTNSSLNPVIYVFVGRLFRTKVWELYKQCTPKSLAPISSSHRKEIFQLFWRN
- method description: FLIPR Ca2+ assay (Fluo-4) on CHO K1 cells stably transfected with the human B1R gene (hB1R cells): % inhibition at 10 μM / IC50, agonist Lys-Des-Arg9-bradykinin
- Format: cell-based
- recorded conditions: CHO-K1, human B1R
Lab book: enter the figure in %, no units written.

Ask | I'm curious: which inhibition at 10 µM was measured for CN(C(=O)c1ccccc1Cl)C1CCc2ccc(C(=O)N3CCC4(CC3)CCN(c3ccncc3)CC4)cc21 (stereo not shown) [Ind_CC-106] tested on human B1R (bradykinin receptor 1) (Homo sapiens, UniProt P46663)?
Reply | 100

Ask | Next molecule up: O=C(N[C@@H]1CCOc2cc(C(F)(F)F)c(C(=O)N3CCC4(CCN(c5ccncc5)CC4)C3)cc21)c1ccccc1Cl [Example H-107]
Reply | 72

Ask | One more molecule: O=C(NCc1ccccc1Cl)NC1CCc2ccc(C(=O)N3CCC4(CC3)CCN(c3ccncc3)C4)cc21 (stereo not shown) [Ind_CC-048]
Reply | 98

Ask | Next record, please: O=C(NC1CCc2ccc(C(=O)N3CCC4(CC3)CCN(c3ccncc3)C4)cc21)c1cc(Cl)ccc1Cl (stereo not shown) [IND_CC-208]
Reply | 99

Ask | Entry to check: O=C(NC1CCc2ccc(C(=O)N3CCC4(CCC(n5ccnc5)CC4)CC3)cc21)c1ccccc1Cl (stereo not shown) [Example H-131]
Reply | 74

Ask | Subsequent entry: O=C(NC1CCc2ccc(C(=O)N3CCC4(CCN(Cc5ccc6nccnc6c5)CC4)C3)cc21)c1ccccc1Cl (stereo not shown) [IND_CC-568]
Reply | 20

Ask | Another molecule to look at: CC1(C)CC(NC(=O)c2cc(C(F)(F)F)ccc2Cl)c2cc(C(=O)N3CCC4(CC3)CCN(c3ccncc3)CC4)ccc21 (stereo not shown) [IND_CC-250]
Reply | 94

---

- target of assay: human B1R (bradykinin receptor 1) (Homo sapiens, UniProt P46663)
- Construct: expressed in transfected cells; host or cells: CHO K1 cells
- method description: FLIPR Ca2+ assay (Fluo-4) on CHO K1 cells stably transfected with the human B1R gene (hB1R cells): % inhibition at 10 μM / IC50, agonist Lys-Des-Arg9-bradykinin
- Assay type: cell-based
- recorded conditions: CHO-K1, human B1R
Please provide measured inhibition at 10 µM for the entries that follow.
Reply with just the number (in %).

Ask | Request the reported inhibition at 10 µM associated with O=C(NC1CCc2ccc(C(=O)N3CCC4(CC3)CCN(c3ccncc3)CC4)cc21)c1cc(Cl)ccc1Cl (stereo not drawn) [IND_CC-207]
Reply | 98

Ask | Okay, and O=C(NC1CCc2ccc(C(=O)N3CCC4(CC3)CCN(c3ccc(C(F)(F)F)cc3)CC4)cc21)c1c(F)cccc1Cl (stereo not drawn) [IND_CC-278] ?
Reply | 35

Ask | Try this compound next: O=C(c1ccc2c(c1)[C@@H](N1Cc3cccc(Cl)c3C1=O)CCC2)N1CCC2(CCN(c3ccncc3)CC2)C1 [Example H-15]
Reply | 59

Ask | Try the compound CN(C(=O)Nc1ccc(Cl)c(Cl)c1)C1CCc2ccc(C(=O)N3CCC4(CC3)CCN(c3ccncc3)CC4)cc21 (stereo not drawn) [Ind_CC-022]
Reply | 91

Ask | Now consider CC1(C)CC(NS(=O)(=O)Cc2ccccc2C(F)(F)F)c2cc(C(=O)N3CCC4(CC3)CCN(c3ccncc3)CC4)ccc21 (stereo not drawn) [IND_CC-256] .
Reply | 99

Ask | // repeat for O=C(N[C@@H]1CCc2ccc(C(=O)N3CCC4(CC3)CCN(c3ccncc3)CC4)cc21)c1c(Cl)cccc1C(F)(F)F [Example H-85] and report
Reply | 100

Ask | What do you have for O=C(NC1CCc2ccc(C(=O)N3CCC4(CC3)CCN(c3ccncc3)C4)cc21)c1cccc(C(F)(F)F)c1Cl (stereo not drawn) [IND_CC-233] ?
Reply | 86

Ask | One more compound: O=C(c1ccc2c(c1)[C@H](N1Cc3cccc(Cl)c3C1=O)CCC2)N1CCC2(CCN(c3ccncc3)CC2)C1 [Example H-13]
Reply | 100

Ask | Repeat with O=C(N[C@@H]1CCc2ccc(C(=O)N3CCC4(CCC(N5CCn6ncnc6C5)CC4)CC3)cc21)c1ccccc1Cl [Example H-55]
Reply | 42

Ask | Similarly, CN(C(=O)c1ccccc1Cl)C1CCc2ccc(C(=O)N3CCC4(CC3)CCN(c3cccnc3)CC4)cc21 (stereo not drawn) [Ind_CC-107] ?
Reply | 78

Ask | Entry to check: O=C(c1ccc2c(c1)C(NS(=O)(=O)c1ccccc1Cl)CC2)N1CCC2(CC1)CCN(c1ccncc1)CC2 (stereo not drawn) [Ind_CC-010]
Reply | 97

Ask | What would you report for CC1(C)Cc2ccc(C(=O)N3CCC4(CC3)CCN(c3ccncc3)CC4)cc2C1NC(=O)c1ccc(F)cc1Cl (stereo not drawn) [IND_CC-275] ?
Reply | 100

Ask | // same read-out, input: O=C(c1cccc2c1CC[C@@H]2NS(=O)(=O)c1ccccc1Cl)N1CCC2(CCN(c3ccncc3)CC2)C1 [Example H-165]
Reply | 44

Ask | Follow-up item: COc1ccc(S(=O)(=O)N[C@@H]2CCc3ccc(C(=O)N4CCC5(CCN(c6ccncc6)CC5)C4)cc32)c(C(F)(F)F)c1 [Example H-144]
Reply | 99

Ask | Then O=C(N[C@@H]1CCCc2ccc(C(=O)N3CCC4(CCCN(c5ccncc5)C4)C3)cc21)c1ccccc1Cl (stereo partly drawn) [Example H-81] ?
Reply | 78

Ask | Let us now turn to O=C(NC1CCc2ccc(C(=O)N3CCC4(CC3)CCN(c3ccncc3)C4)cc21)c1cc(F)ccc1Cl (stereo not drawn) [IND_CC-221]
Reply | 100

Ask | Now consider CC1(C)CC(NC(=O)c2ccccc2Cl)c2cc(C(=O)N3CCC4(CC3)CCN(c3ccncc3)CC4)ccc21 (stereo not drawn) [IND_CC-292] .
Reply | 99

Ask | Next compound: O=C(c1cccc2c1CC[C@@H]2N1Cc2cccc(Cl)c2C1=O)N1CCC2(CCN(c3ccncc3)CC2)C1 [Example H-168]
Reply | 96

Ask | Param item: CC1(C)CC(NC(=O)c2ccc(Cl)cc2Cl)c2cc(C(=O)N3CCC4(CC3)CCN(c3ccncc3)CC4)ccc21 (stereo not drawn) [Ind_CC-059]
Reply | 100

Ask | Cool, now O=C(c1ccc2c(c1)C(NS(=O)(=O)Cc1ccccc1C(F)(F)F)CC2)N1CCC2(CC1)CCN(c1ccncc1)C2 (stereo not drawn) [IND_CC-237]
Reply | 100

Ask | Same again, this time with O=C(NC1CCc2ccc(C(=O)N3CCC4(CCN(c5cc[n+]([O-])cc5)CC4)C3)cc21)c1ccccc1Cl (stereo not drawn) [Example H-129]
Reply | 100

Ask | Cool, now O=C(NC1CCc2ccc(C(=O)N3CCC4(CC3)CCN(c3ccncc3)CC4)cc21)c1sccc1Cl (stereo not drawn) [Ind_CC-004]
Reply | 99

Ask | O=C(NC1CCc2ccc(C(=O)N3CCC4(CC3)CCN(c3ccc(C(F)(F)F)cc3)CC4)cc21)c1cc(Cl)ccc1Cl (stereo not drawn) [IND_CC-209] , same question.
Reply | 20

Ask | How about O=C(N[C@@H]1CCCc2cc(F)c(C(=O)N3CCC4(CCN(c5ccncc5)CC4)C3)cc21)c1ccccc1Cl [Example H-82] ?
Reply | 100

Ask | Repeat for the following compound: CN(C(=O)c1cccc(C(F)(F)F)c1Cl)C1CCc2ccc(C(=O)N3CCC4(CC3)CCN(c3ccncc3)CC4)cc21 (stereo not drawn) [IND_CC-225]
Reply | 71

Ask | Do the same for O=C(NC1CCc2ccc(C(=O)N3CCC4(CC3)CCN(c3ccc(C(F)(F)F)cc3)CC4)cc21)c1ccc(F)cc1Cl (stereo not drawn) [IND_CC-274] please
Reply | 8

Ask | Follow-up entry: COc1cc(C)c(S(=O)(=O)N[C@@H]2CCCc3ccc(C(=O)N4CCC5(CCN(c6ccncc6)CC5)C4)cc32)c(C)c1 [Example H-16]
Reply | 100

---

- target of assay: human B1R (bradykinin receptor 1) (Homo sapiens, UniProt P46663)
- Construct: expressed in transfected cells; host or cells: CHO K1 cells
- method description: FLIPR Ca2+ assay (Fluo-4) on CHO K1 cells stably transfected with the human B1R gene (hB1R cells): % inhibition at 10 μM / IC50, agonist Lys-Des-Arg9-bradykinin
- Type: cell-based
- recorded conditions: human B1R, 10 µM
parameter measured: % Inhibition (human B1R) at 10 μM (%)
Numeric answer only, unit % assumed.

Ask | What does the data say about its % Inhibition (human B1R) at 10 μM? Entry: O=C(NC1CCc2ccc(C(=O)N3CCC4(CC3)CCN(c3ccncc3)CC4)cc21)c1ccccc1Cl (centres unmarked) [Ind_CC-095]
Reply | 99

Ask | Then what about the compound CN(C(=O)c1ccccc1Cl)C1CCc2ccc(C(=O)N3CCC4(CC3)CCN(c3ccncc3)CC4)cc21 (centres unmarked) ?
Reply | 99

Ask | Repeat for the following compound: CN(C(=O)c1ccccc1Cl)C1CCc2ccc(C(=O)N3CCC4(CCN(c5ccncc5)CC4)C3)cc21 (centres unmarked)
Reply | 99

Ask | Next record, please: COc1cc(C)c(S(=O)(=O)NC2CCc3ccc(C(=O)N4CCC5(CC4)CCN(c4ccncc4)CC5)cc32)c(C)c1 (centres unmarked)
Reply | 98

Ask | Note, next up: O=C(NC1CCc2ccc(C(=O)N3CCC4(CC3)CCN(c3ccncc3)CC4)cc21)c1ccccc1Cl (centres unmarked) [Example H-02]
Reply | 100
